target: WT-TTR (Homo sapiens, UniProt P02766); construct: made in house; assay: Stagnant acid-mediated TTR aggregation (fibril formation) assay, turbidity at 340 nm; type: biochemical; conditions: 72 h, pH 4.4, TTR 7.2 μM, inhibitor 7.2 μM (1:1), pH 4.4, 37° C.; no inhibitor = 100%; read-out: % FF 1:1
measured-property: remaining activity at 7.2 µM (%)

O=C(Nc1nnc[nH]1)c1c(Cl)ccc(Cl)c1Cl [Compound 12] : 11
COc1cc(CCl)ccc1Oc1ccc(Cl)cc1Cl [Compound 5] : 26
COc1cc(C(=O)O)ccc1Oc1ccc(Cl)cc1Cl [Compound 6] : 10
OCc1ccc(Oc2ccc(Cl)cc2Cl)c(O)c1 [Compound 4] : 12
Oc1ccccc1-c1nnc(S)o1 [Compound 11] : 21

[P] COc1cc(CCl)ccc1Oc1ccccc1 [Compound 8, 3-Methoxy-4-phenoxybenzyl chloride]
[Q] COc1cc(C=O)ccc1Oc1ccccc1 [Compound 9]
Q. Task for the reader: decide whether P or Q has the larger remaining activity at 7.2 µM. # answer = label of selected item
A. P
(P: 25%, Q: 12%)

Values from patent US20100190832A1
